GI50: recorded values
# Tested on: EKVX
# Assay Text: NCI tumour cell line growth inhibition, 48 h
Active and inactive are the calls of the source. Cut-off read from the data, not from the text of the source: active = GI50 up to about 1.1 µM and inactive = higher.

- Compound: "C[n+]1c2ccccc2n2c3ccccc3c(NCCCN3CCOCC3)c(C#N)c21"
  GI50: "2.9 µM (inactive)"
- Compound: "NCC1OC(OC2C(N)CC(N)C(O)C2OC2OC(CO)C(O)C2O)C(N)C(O)C1O (stereo not given)"
  GI50: "> 100 µM (inactive)"
- Compound: "Cc1cn([C@@H]2O[C@H](CO)[C@@H](O)[C@@H]2O)c(=O)[nH]c1=O"
  GI50: "> 1000 µM (inactive)"
- Compound: "O=C1/C(=C/c2ccc(Cl)cc2)CCC1CNc1ccc(Cl)cc1 (stereo not given)"
  GI50: "10.7 µM (inactive)"
- Compound: "NNC(=O)CC(=O)Nc1ccccc1F"
  GI50: "> 100 µM (inactive)"
